Reported koff values for the following binders.
- Tgt: T1, Cyno CD33 ECD-HSA (cynomolgus monkey)
- T1 construct: Cyno CD33 extracellular domain fused to monomeric human serum albumin and a six-histidine tag; also called C33W1
- Test Description: SPRi off-rate screen (IBIS MX96), mAb captured by anti-human Fc; column head prints Cyno CD33 binding KD
Reply with the number, then its unit.

{"columns": ["Binder", "Result"],
 "data": [
  ["C33B82 (antibody, IgG1, V domains shown, huIgG1 F405L; also called C33F87; C33H78/C33L57) VH: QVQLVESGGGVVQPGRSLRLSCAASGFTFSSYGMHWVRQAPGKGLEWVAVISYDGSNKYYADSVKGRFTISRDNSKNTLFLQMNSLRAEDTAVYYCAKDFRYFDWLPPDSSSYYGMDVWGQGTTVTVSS VL: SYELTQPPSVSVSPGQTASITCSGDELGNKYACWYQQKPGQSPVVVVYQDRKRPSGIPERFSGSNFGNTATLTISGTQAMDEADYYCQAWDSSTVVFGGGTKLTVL", "0.00067 s⁻¹"],
  ["C33B52 (antibody, IgG1, V domains shown, huIgG1 F405L; also called C33F57; C33H42/C33L8) VH: QLQLQESGPGLVNPSETLSHTCTVSGGSISSSSHYWGWIRQPPGKGLEWIGKIYYSGNTYYNPSLKSRVTISIDTSKNQFSLKMSSVTAADTAVYYCARLADVVVVPAARYFDSWGQGTLVTVSS VL: SYELTQPPSVSVSPGQTASIICSGDKLGNKYACWYQQKPGQSPVLVIYQDSKRPSGIPERFSGSNSGNTATLTISGTQAVDEADYYCQAWDSSTYVFGTGTKVTVL", "0.0012 s⁻¹"]
]}

Value of koff reported for the binder C33B79 (antibody, IgG1, V domains shown, huIgG1 F405L; also called C33F84; C33H74/C33L38) VH: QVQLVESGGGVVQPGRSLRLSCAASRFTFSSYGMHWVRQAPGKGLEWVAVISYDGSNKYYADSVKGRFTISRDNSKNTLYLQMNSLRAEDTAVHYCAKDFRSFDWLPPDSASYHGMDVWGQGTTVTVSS VL: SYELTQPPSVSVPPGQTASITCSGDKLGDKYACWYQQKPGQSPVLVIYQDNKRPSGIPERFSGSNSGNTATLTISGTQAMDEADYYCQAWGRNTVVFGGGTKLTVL is 0.00682 s⁻¹

The measurements presented in this section are drawn from patent US20230322924A1.
